Biological target: 5HT1B serotonergic receptor (Homo sapiens, UniProt P28222)
Sequence (P28222 whole entry): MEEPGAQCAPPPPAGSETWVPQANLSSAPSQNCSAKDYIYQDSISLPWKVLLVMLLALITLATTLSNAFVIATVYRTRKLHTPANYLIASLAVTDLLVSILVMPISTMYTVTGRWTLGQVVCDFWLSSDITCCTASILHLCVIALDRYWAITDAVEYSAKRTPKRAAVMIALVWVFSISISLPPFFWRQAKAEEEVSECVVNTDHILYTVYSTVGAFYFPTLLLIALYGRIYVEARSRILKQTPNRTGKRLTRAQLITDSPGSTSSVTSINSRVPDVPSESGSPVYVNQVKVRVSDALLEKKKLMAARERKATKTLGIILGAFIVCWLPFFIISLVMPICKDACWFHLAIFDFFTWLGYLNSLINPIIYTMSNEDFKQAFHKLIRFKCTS
Test: PDSP radioligand binding, 5HT1B
Conditions: read-out: % inhibition at 10 µM; single concentration 10 µM
Below is a list of entries, each paired with its recorded inhibition at 10 µM value.
Numeric only. Scale: %

Recorded inhibition at 10 µM, per entry:
- Mol Smiles: "Clc1cccc(CNc2nc(Cl)nc3[nH]cnc23)c1"
  Outcome Measure: "inhibition at 10 µM"
  Numeric Result: 6
- Mol Smiles: "Fc1ccc(C#Cc2nc(NCc3cccc(Cl)c3)c3nc[nH]c3n2)cc1F"
  Outcome Measure: "inhibition at 10 µM"
  Numeric Result: 32

Read the next record carefully.
Request: GET /values?readout=inhibition at 10 µM&item= O[C@@H]1[C@H](O)[C@@H]2C[C@@H]2[C@H]1n1cnc2c(NC(C3CC3)C3CC3)nc(Cl)nc21
Result: 0

---

Target: M2 muscarinic acetylcholine receptor (Homo sapiens)
Sequence (P08172 1-466): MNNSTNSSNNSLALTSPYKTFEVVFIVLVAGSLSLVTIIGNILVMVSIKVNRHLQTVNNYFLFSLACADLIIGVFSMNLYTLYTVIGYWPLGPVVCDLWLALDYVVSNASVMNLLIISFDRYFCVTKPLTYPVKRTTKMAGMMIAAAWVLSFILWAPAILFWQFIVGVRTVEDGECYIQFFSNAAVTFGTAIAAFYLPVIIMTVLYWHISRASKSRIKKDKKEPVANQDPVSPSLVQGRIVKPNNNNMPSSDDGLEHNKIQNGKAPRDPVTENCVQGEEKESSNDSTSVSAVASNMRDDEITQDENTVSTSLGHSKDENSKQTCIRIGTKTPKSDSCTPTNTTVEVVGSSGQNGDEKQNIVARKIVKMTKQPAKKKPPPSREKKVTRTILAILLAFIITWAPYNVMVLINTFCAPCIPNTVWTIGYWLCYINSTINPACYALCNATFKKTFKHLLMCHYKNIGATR
Experiment: PDSP radioligand binding, M2
Settings: read-out: % inhibition at 10 µM; single concentration 10 µM
Please use true (1) whenever inhibition at 10 µM is not below 7%, and false (0) whenever it is.

- Mol Smiles: "CNC(=O)[C@@]12C[C@@H]1[C@@H](n1cnc3c(NCc4cccc(Cl)c4)nc(C#Cc4ccc(F)cc4)nc31)[C@H](O)[C@@H]2O"
  Qualitative Label: "false (0)"
- Mol Smiles: "Clc1cccc(CNc2nc(Cl)nc3[nH]cnc23)c1"
  Qualitative Label: "true (1)"
- Mol Smiles: "CNC(=O)[C@@]12C[C@@H]1[C@@H](n1cnc3c(NCc4cccc(Cl)c4)nc(C#Cc4ccccc4Cl)nc31)[C@H](O)[C@@H]2O"
  Qualitative Label: "false (0)"

Request: API: above_or_equal(metric=inhibition at 10 µM, cutoff=7%) for item CNC(=O)[C@@]12C[C@@H]1[C@@H](n1cnc3c(NCc4cccc(Cl)c4)nc(Cl)nc31)[C@H](O)[C@@H]2O
Result: true (1)

Request: Next: O[C@@H]1[C@H](O)[C@@H]2C[C@@H]2[C@H]1n1cnc2c(NC(C3CC3)C3CC3)nc(Cl)nc21
Result: true (1)

Request: Next: O[C@@H]1[C@H](O)[C@@H]2C[C@@H]2[C@H]1n1cnc2c(NCc3cccc(Cl)c3)ncnc21
Result: true (1)

Request: Next: CNC(=O)[C@@]12C[C@@H]1[C@@H](n1cnc3c(NC)nc(C#Cc4ccc(F)c(F)c4)nc31)[C@H](O)[C@@H]2O
Result: false (0)

Request: Next: Fc1ccc(C#Cc2nc(NCc3cccc(Cl)c3)c3nc[nH]c3n2)cc1F
Result: false (0)

---

Biological target: 5HT2B receptor (Homo sapiens)
Sequence (P41595 whole entry): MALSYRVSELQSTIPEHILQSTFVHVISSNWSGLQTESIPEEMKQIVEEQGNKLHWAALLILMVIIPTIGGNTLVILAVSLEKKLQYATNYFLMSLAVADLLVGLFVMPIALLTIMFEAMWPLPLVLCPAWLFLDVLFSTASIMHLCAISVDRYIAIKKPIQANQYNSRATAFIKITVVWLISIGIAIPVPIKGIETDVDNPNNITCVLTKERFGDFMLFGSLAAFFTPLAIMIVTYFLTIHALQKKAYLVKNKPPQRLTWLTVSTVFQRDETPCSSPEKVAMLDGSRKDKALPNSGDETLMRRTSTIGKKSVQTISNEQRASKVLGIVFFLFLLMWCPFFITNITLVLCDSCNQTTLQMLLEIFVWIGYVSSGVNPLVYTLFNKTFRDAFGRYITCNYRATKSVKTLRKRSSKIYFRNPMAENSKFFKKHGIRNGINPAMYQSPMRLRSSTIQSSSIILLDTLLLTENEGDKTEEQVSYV
Assay: 5HT2B functional assay, antagonist mode (inhibition of agonist activity)
Format: cell-based
Conditions: antagonist mode; read-out: IC50, inhibition of agonist activity at 5HT2B
Outcome Measure: pIC50
Note on units: pIC50 is unitless, being -log10 of a concentration expressed in mol/L.

Request: GET /values?readout=pIC50&item= CNC(=O)[C@@]12C[C@@H]1[C@@H](n1cnc3c(NCc4cccc(Cl)c4)nc(Cl)nc31)[C@H](O)[C@@H]2O
Result: 6.05

---

Below is a list of entries, each paired with its recorded inhibition at 10 µM value.
Target: 5HT3 ion channels (Homo sapiens, UniProt P46098)
Sequence (P46098 24-478): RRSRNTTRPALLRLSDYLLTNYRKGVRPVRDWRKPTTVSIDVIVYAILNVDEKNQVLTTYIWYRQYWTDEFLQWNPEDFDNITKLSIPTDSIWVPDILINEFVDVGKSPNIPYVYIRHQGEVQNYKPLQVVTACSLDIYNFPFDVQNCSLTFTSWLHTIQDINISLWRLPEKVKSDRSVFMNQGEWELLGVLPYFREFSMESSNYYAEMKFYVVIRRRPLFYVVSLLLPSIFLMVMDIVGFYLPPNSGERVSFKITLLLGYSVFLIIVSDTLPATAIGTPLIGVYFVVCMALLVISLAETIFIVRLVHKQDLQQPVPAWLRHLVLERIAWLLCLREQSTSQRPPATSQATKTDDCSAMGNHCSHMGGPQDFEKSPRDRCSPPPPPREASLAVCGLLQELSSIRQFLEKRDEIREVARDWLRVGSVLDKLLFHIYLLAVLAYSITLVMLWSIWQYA
Test: PDSP radioligand binding, 5HT3 ion channel
Conditions: read-out: % inhibition at 10 µM; single concentration 10 µM
Report the figure along with its unit, number first.

Recorded inhibition at 10 µM, per entry:
- Mol Smiles: "CNC(=O)[C@@]12C[C@@H]1[C@@H](n1cnc3c(NCc4cccc(Cl)c4)nc(Cl)nc31)[C@H](O)[C@@H]2O"
  Result: "5%"
- Mol Smiles: "CNC(=O)[C@@]12C[C@@H]1[C@@H](n1cnc3c(NCc4cccc(Cl)c4)nc(C#Cc4ccccc4Cl)nc31)[C@H](O)[C@@H]2O"
  Result: "50%"
- Mol Smiles: "O[C@@H]1[C@H](O)[C@@H]2C[C@@H]2[C@H]1n1cnc2c(NCc3cccc(Cl)c3)ncnc21"
  Result: "83%"

Request: GET /values?readout=inhibition at 10 µM&item= Fc1ccc(C#Cc2nc(NCc3cccc(Cl)c3)c3nc[nH]c3n2)cc1F
Result: 0%

---

Below is a list of entries, each paired with its recorded inhibition at 10 µM value.
Biological target: 5HT7 serotonergic receptor (Homo sapiens, UniProt P34969)
Sequence (P34969 whole entry): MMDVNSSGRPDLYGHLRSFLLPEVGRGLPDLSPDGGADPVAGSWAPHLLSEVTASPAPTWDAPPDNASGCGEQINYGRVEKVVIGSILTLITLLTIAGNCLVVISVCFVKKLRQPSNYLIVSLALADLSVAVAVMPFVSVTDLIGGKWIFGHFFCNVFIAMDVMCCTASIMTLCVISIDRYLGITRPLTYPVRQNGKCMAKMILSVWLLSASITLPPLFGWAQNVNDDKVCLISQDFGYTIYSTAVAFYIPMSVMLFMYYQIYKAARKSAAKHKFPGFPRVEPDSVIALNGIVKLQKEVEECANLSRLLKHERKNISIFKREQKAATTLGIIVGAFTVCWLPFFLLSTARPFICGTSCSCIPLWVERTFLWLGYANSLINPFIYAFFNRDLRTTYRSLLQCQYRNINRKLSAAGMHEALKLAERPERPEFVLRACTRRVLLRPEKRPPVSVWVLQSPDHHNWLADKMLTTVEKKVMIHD
Test: PDSP radioligand binding, 5HT7
Conditions: read-out: % inhibition at 10 µM; single concentration 10 µM
Numeric only. Scale: %

Recorded inhibition at 10 µM, per entry:
- Mol Smiles: "O[C@@H]1[C@H](O)[C@@H]2C[C@@H]2[C@H]1n1cnc2c(NCc3cccc(Cl)c3)nc(C#Cc3ccc(F)c(F)c3)nc21"
  Measurement Units: "%"
  Numeric Result: 0
- Mol Smiles: "CNC(=O)[C@@]12C[C@@H]1[C@@H](n1cnc3c(NCc4cccc(Cl)c4)nc(C#Cc4ccc(F)cc4)nc31)[C@H](O)[C@@H]2O"
  Measurement Units: "%"
  Numeric Result: 6

Request: GET /values?readout=inhibition at 10 µM&item= CNC(=O)[C@@]12C[C@@H]1[C@@H](n1cnc3c(NCc4cccc(Cl)c4)nc(C#Cc4ccccc4Cl)nc31)[C@H](O)[C@@H]2O
Result: 8

Request: Next: CNC(=O)[C@@]12C[C@@H]1[C@@H](n1cnc3c(NC)nc(C#Cc4ccc(F)c(F)c4)nc31)[C@H](O)[C@@H]2O
Result: 0

Request: Next: CNC(=O)[C@@]12C[C@@H]1[C@@H](n1cnc3c(NCc4cccc(Cl)c4)nc(Cl)nc31)[C@H](O)[C@@H]2O
Result: 40

Request: Next: Fc1ccc(C#Cc2nc(NCc3cccc(Cl)c3)c3nc[nH]c3n2)cc1F
Result: 0

Request: Next: O[C@@H]1[C@H](O)[C@@H]2C[C@@H]2[C@H]1n1cnc2c(NCc3cccc(Cl)c3)ncnc21
Result: 35

Request: Next: O[C@@H]1[C@H](O)[C@@H]2C[C@@H]2[C@H]1n1cnc2c(NC(C3CC3)C3CC3)nc(Cl)nc21
Result: 0

Request: Next: Clc1cccc(CNc2nc(Cl)nc3[nH]cnc23)c1
Result: 12

---

Below is a list of entries, each paired with its recorded inhibition at 10 µM value.
Molecular target: UniProt:P25100
Sequence (P25100 whole entry): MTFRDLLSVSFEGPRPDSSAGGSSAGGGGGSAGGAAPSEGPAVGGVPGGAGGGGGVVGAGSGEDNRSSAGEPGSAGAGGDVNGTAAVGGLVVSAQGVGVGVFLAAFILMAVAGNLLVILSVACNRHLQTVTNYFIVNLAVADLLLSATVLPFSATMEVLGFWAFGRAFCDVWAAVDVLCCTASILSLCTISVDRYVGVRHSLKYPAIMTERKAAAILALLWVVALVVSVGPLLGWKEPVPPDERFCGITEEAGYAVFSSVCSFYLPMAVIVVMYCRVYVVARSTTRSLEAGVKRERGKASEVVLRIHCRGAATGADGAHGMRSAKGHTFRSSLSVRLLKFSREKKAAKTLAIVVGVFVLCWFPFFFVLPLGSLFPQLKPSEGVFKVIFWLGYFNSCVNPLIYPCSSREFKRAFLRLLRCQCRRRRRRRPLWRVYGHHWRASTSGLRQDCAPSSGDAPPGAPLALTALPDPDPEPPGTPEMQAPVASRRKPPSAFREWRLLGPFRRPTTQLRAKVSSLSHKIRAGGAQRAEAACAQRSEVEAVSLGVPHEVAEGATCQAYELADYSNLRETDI
Assay: PDSP radioligand binding, α1D
Details: read-out: % inhibition at 10 µM; single concentration 10 µM
Numeric only. Scale: %

- Compound: "O[C@@H]1[C@H](O)[C@@H]2C[C@@H]2[C@H]1n1cnc2c(NCc3cccc(Cl)c3)ncnc21 [Compound 7]"
  Study Target: "UniProt:P25100"
  Numeric Result: 30

Request: GET /values?readout=inhibition at 10 µM&item= O[C@@H]1[C@H](O)[C@@H]2C[C@@H]2[C@H]1n1cnc2c(NCc3cccc(Cl)c3)nc(C#Cc3ccc(F)c(F)c3)nc21 [Compound 6]
Result: 5

Request: Next: CNC(=O)[C@@]12C[C@@H]1[C@@H](n1cnc3c(NC)nc(C#Cc4ccc(F)c(F)c4)nc31)[C@H](O)[C@@H]2O [Compound 5]
Result: 0

---

Biological target: hERG potassium channel (Homo sapiens)
Sequence (Q12809 whole entry): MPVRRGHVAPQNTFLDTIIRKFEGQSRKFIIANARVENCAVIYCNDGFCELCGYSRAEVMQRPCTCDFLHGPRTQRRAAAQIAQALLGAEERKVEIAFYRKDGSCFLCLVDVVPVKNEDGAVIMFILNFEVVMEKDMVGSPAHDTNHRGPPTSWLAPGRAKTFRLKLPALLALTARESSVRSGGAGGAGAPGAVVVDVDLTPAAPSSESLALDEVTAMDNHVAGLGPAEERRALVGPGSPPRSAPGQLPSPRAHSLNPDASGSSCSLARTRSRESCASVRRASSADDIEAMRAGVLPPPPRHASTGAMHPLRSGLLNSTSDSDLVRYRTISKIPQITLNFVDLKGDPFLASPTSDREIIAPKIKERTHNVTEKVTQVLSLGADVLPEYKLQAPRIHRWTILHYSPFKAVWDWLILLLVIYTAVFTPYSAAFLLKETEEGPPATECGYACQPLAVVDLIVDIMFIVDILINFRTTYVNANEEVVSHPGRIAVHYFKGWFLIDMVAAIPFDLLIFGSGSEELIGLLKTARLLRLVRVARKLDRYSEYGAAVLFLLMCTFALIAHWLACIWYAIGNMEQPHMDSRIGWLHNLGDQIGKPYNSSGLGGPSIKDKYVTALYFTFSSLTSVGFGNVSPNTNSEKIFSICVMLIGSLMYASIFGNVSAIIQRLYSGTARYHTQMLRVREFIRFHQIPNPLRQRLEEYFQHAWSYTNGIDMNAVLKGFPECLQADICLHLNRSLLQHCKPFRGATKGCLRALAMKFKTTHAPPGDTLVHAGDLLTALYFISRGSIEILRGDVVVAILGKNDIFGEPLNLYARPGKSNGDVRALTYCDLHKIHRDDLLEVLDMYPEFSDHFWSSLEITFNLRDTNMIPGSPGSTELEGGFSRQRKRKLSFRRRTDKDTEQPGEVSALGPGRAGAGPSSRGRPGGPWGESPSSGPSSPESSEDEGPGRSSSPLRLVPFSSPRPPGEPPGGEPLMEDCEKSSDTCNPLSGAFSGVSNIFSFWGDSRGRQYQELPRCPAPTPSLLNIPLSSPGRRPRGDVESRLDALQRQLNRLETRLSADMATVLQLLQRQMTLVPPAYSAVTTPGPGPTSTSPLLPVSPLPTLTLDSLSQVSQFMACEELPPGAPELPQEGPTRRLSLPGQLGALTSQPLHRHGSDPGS
Assay: PDSP hERG functional assay
Assay type: cell-based
Details: human, single point 10 µM
Below is a list of entries, each paired with its recorded inhibition at 10 µM value.

- Mol Smiles: "CNC(=O)[C@@]12C[C@@H]1[C@@H](n1cnc3c(NCc4cccc(Cl)c4)nc(C#Cc4ccccc4Cl)nc31)[C@H](O)[C@@H]2O"
  inhibition at 10 µM: "10.3%"

Request: GET /values?readout=inhibition at 10 µM&item= CNC(=O)[C@@]12C[C@@H]1[C@@H](n1cnc3c(NCc4cccc(Cl)c4)nc(C#Cc4ccc(F)cc4)nc31)[C@H](O)[C@@H]2O
Result: 5.8%

Request: Next: CNC(=O)[C@@]12C[C@@H]1[C@@H](n1cnc3c(NCc4cccc(Cl)c4)nc(C#Cc4ccc(F)c(F)c4)nc31)[C@H](O)[C@@H]2O
Result: 43%

Request: Next: CNC(=O)[C@@]12C[C@@H]1[C@@H](n1cnc3c(NCc4cccc(Cl)c4)nc(Cl)nc31)[C@H](O)[C@@H]2O
Result: 2%
